- measurement_notes: Plasma protein binding in mouse assessed as unbound fraction at 1 uM incubated for 6 hrs by LC-MS/MS analysis
- Format: ADME, cell-free
readout_kind: fraction unbound at 6 h, 1 µM

Challenge: I am curious: what fraction unbound at 6 h, 1 µM value has been reported for `C[C@@H](O)[C@H](NC(=O)c1ccc(C#Cc2ccc(/C=N/N3CCCC3)cc2)cc1)C(=O)NO` ?
Response given: 0.00232

----------
- System: Klebsiella pneumoniae
- measurement_notes: Antibacterial activity against Klebsiella pneumoniae clinical isolate KPN+22-1 assessed as reduction in bacterial growth measured after 18 to 24 hrs by CLSI protocol based method
- Assay type: functional
- setup_conditions: time 18-24 hrs
Each entry below lists one item and its recorded MIC value.

Answered cases to consult:
C#CCN1CCN(/N=C/c2ccc(C#Cc3ccc(C(=O)N[C@H](C(=O)NO)[C@@H](C)O)cc3)cc2)CC1; 2 µg/mL
C[C@@H](O)[C@H](NC(=O)c1ccc(C#Cc2ccc(/C=N/N3CCN(C)CC3)nc2)cc1)C(=O)NO; 32 µg/mL
C[C@@H](O)[C@H](NC(=O)c1ccc(C#Cc2ccc(/C=N/N3CCN(C(=O)N(C)C)CC3)cc2)cc1)C(=O)NO; 2 µg/mL
CCC(=O)N1CCN(/N=C/c2ccc(C#Cc3ccc(C(=O)N[C@H](C(=O)NO)[C@@H](C)O)cc3)cn2)CC1; 32 µg/mL

Challenge: Which value of MIC has been reported for `C[C@@H](O)[C@H](NC(=O)c1ccc(C#Cc2ccc(/C=N/N3CCCC3)nc2)cc1)C(=O)NO` in the records?
Response given: > 64 µg/mL

----------
Cmax listing for selected compounds.
- measurement_notes: Cmax in male Sprague-Dawley rat at 10 mg/kg, IG measured upto 24 hrs by LC-MS analysis
- Type: ADME, organism-based
- setup_conditions: in vivo, po
Please state the figure in ng/mL; there is no need to write the unit.

C[C@@H](O)[C@H](NC(=O)c1ccc(C#Cc2ccc(CN3CCOCC3)cc2)cc1)C(=O)NO; 262

API: the following record is the query input.
Challenge: Need Cmax of `C[C@@H](O)[C@H](NC(=O)c1ccc(C#Cc2ccc(/C=N/N3CCCC3)cc2)cc1)C(=O)NO` , thanks.
Response given: 218

----------
- measurement_notes: MRT (0 to t) in male Sprague-Dawley rat at 1 mg/kg, iv measured upto 24 hrs by LC-MS analysis
- Assay type: ADME, organism-based
- setup_conditions: in vivo
readout_kind: MRT last at 24 h (min)
Just the number please, in min, no unit attached.

C[C@@H](O)[C@H](NC(=O)c1ccc(C#Cc2ccc(/C=N/N3CCCC3)cc2)cc1)C(=O)NO; 78.6

Field: next molecule
Challenge: Fill in: MRT last at 24 h of `C[C@@H](O)[C@H](NC(=O)c1ccc(C#Cc2ccc(CN3CCOCC3)cc2)cc1)C(=O)NO` is ___
Response given: 14.4

----------
- measurement_notes: Metabolic stability in mouse liver microsomes assessed as intrinsic clearance at 1 uM preincubated for 5 mins followed by NADPH addition and measured after 5 to 60 mins by LC-MS analysis
- Format: ADME, Microsome
- setup_conditions: liver microsomes, time 10-65 min, read-out: CLH
The following compounds are listed with their measured microsomal CLint at 1 µM values.

C[C@@H](O)[C@H](NC(=O)c1ccc(C#Cc2ccc(CN3CCOCC3)cc2)cc1)C(=O)NO; 18.8 µL/min/mg
C[C@@H](O)[C@H](NC(=O)c1ccc(C#Cc2ccc(/C=N/N3CCN(C(=O)C(C)(C)C)CC3)cc2)cc1)C(=O)NO; 9.29 µL/min/mg
C[C@@H](O)[C@H](NC(=O)c1ccc(C#Cc2ccc(/C=N/N3CCN(C(=O)C4CC4)CC3)cc2)cc1)C(=O)NO; 12.2 µL/min/mg
CCC(=O)N1CCN(/N=C/c2ccc(C#Cc3ccc(C(=O)N[C@H](C(=O)NO)[C@@H](C)O)cc3)cc2)CC1; 7.23 µL/min/mg

With those in mind, consider the next compound.
Challenge: Need microsomal CLint at 1 µM, item `C[C@@H](O)[C@H](NC(=O)c1ccc(C#Cc2ccc(/C=N/N3CCOCC3)cc2)cc1)C(=O)NO`
Response given: 1.79 µL/min/mg

----------
- measurement_notes: Metabolic stability in human liver microsomes assessed as intrinsic clearance at 1 uM preincubated for 5 mins followed by NADPH addition and measured after 5 to 60 mins by LC-MS analysis
- Assay type: ADME, Microsome
- setup_conditions: time 10-65 min, read-out: CLH
Each entry below carries its reported microsomal CLint at 1 µM.
API: value field is a number in µL/min/mg; no unit string.

Challenge: Report microsomal CLint at 1 µM for `C[C@@H](O)[C@H](NC(=O)c1ccc(C#Cc2ccc(CN3CCOCC3)cc2)cc1)C(=O)NO` please.
Response given: 1.38

----------
- measurement_notes: Clearance in male Sprague-Dawley rat at 1 mg/kg, iv measured upto 24 hrs by LC-MS analysis
- Type: ADME, organism-based
- setup_conditions: in vivo
clearance: recorded values
Note: unit mL/min/kg is implicit; provide only the numeric part.

C[C@@H](O)[C@H](NC(=O)c1ccc(C#Cc2ccc(CN3CCOCC3)cc2)cc1)C(=O)NO; 66.7

Challenge: Look up clearance for this compound: `C[C@@H](O)[C@H](NC(=O)c1ccc(C#Cc2ccc(/C=N/N3CCCC3)cc2)cc1)C(=O)NO`
Response given: 20.6

----------
Listed next: entries and their corresponding AUC(0-t) at 24 h.
- measurement_notes: AUC (0 to t) in male Sprague-Dawley rat at 1 mg/kg, iv measured upto 24 hrs by LC-MS analysis
- Type: ADME, organism-based
- setup_conditions: in vivo
Express the result in ng·h/mL but write the number alone.

C[C@@H](O)[C@H](NC(=O)c1ccc(C#Cc2ccc(CN3CCOCC3)cc2)cc1)C(=O)NO; 249

Challenge: AUC(0-t) at 24 h for `C[C@@H](O)[C@H](NC(=O)c1ccc(C#Cc2ccc(/C=N/N3CCCC3)cc2)cc1)C(=O)NO` ?
Response given: 791

----------
- measurement_notes: Metabolic stability in rat liver microsomes assessed as intrinsic clearance at 1 uM preincubated for 5 mins followed by NADPH addition and measured after 5 to 60 mins by LC-MS analysis
- Assay type: ADME, Microsome
- setup_conditions: liver microsomes, time 10-65 min, read-out: CLH
Below: a set of entries, each annotated with reported microsomal CLint at 1 µM.
I'd appreciate it if you wrote the number followed by its unit.

CCC(=O)N1CCN(/N=C/c2ccc(C#Cc3ccc(C(=O)N[C@H](C(=O)NO)[C@@H](C)O)cc3)cc2)CC1; 6.7 µL/min/mg
C[C@@H](O)[C@H](NC(=O)c1ccc(C#Cc2ccc(CN3CCOCC3)cc2)cc1)C(=O)NO; 64 µL/min/mg
C[C@@H](O)[C@H](NC(=O)c1ccc(C#Cc2ccc(/C=N/N3CCOCC3)cc2)cc1)C(=O)NO; 4.53 µL/min/mg
C[C@@H](O)[C@H](NC(=O)c1ccc(C#Cc2ccc(/C=N/N3CCN(C(=O)C4CC4)CC3)cc2)cc1)C(=O)NO; 5.05 µL/min/mg

Now turn to the next compound.
Challenge: # get_value(readout='microsomal CLint at 1 µM', item= `C[C@@H](O)[C@H](NC(=O)c1ccc(C#Cc2ccc(/C=N/N3CCN(C(=O)C(C)(C)C)CC3)cc2)cc1)C(=O)NO` )
Response given: 15.6 µL/min/mg

----------
Overview of reported recovery at 6 h, 1 µM across a group of molecules:
- measurement_notes: Plasma protein binding in rat assessed as drug recovery at 1 uM incubated for 6 hrs by LC-MS/MS analysis
- Format: ADME, cell-free
- setup_conditions: read-out: Drug recovery

C[C@@H](O)[C@H](NC(=O)c1ccc(C#Cc2ccc(CN3CCOCC3)cc2)cc1)C(=O)NO; 91.7%

// below: recovery at 6 h, 1 µM requested for another molecule
Challenge: Give its recovery at 6 h, 1 µM value. Item: `C[C@@H](O)[C@H](NC(=O)c1ccc(C#Cc2ccc(/C=N/N3CCCC3)cc2)cc1)C(=O)NO`
Response given: 102%

----------
- measurement_notes: Plasma protein binding in human assessed as unbound fraction at 1 uM incubated for 6 hrs by LC-MS/MS analysis
- Format: ADME, cell-free
readout_kind: fraction unbound at 6 h, 1 µM
Form: value (number only, do not type unit).

Challenge: Param item = `C[C@@H](O)[C@H](NC(=O)c1ccc(C#Cc2ccc(/C=N/N3CCCC3)cc2)cc1)C(=O)NO` ; retrieve measured fraction unbound at 6 h, 1 µM.
Response given: 0.0013

----------
- measurement_notes: Plasma protein binding in human assessed as drug recovery at 1 uM incubated for 6 hrs by LC-MS/MS analysis
- Assay type: ADME, cell-free
- setup_conditions: read-out: Drug recovery
readout_kind: recovery at 6 h, 1 µM (%)
Response body: numeric value in %, unit text excluded.

C[C@@H](O)[C@H](NC(=O)c1ccc(C#Cc2ccc(CN3CCOCC3)cc2)cc1)C(=O)NO; 101

Challenge: Please report the recorded recovery at 6 h, 1 µM for `C[C@@H](O)[C@H](NC(=O)c1ccc(C#Cc2ccc(/C=N/N3CCCC3)cc2)cc1)C(=O)NO` .
Response given: 103
